pIC50 by entry:
Tested on: S1-M1-80 cells
Experiment: cells
Assay type: cell-based, human
Residues, ends and D or L forms follow the SMILES beside them.
// returns pIC50 (minus log10 of molar concentration), number only

Some compounds with recorded pIC50:
INSERT INTO measurements (compound, reported_measurement) VALUES
  ('CC[C@H](C)[C@H](NC(=O)[C@H](CCC(N)=O)NC(=O)[C@H](CC(=O)O)NC(=O)[C@H](CC(C)C)NC(=O)[C@H](CS)NC(=O)[C@@H](N)CC(C)C)C(=O)NCC(=O)N[C@@H](CCC(=O)O)C(=O)N[C@@H](Cc1ccccc1)C(=O)N[C@@H](CCC(N)=O)C(=O)N[C@@H](CS)C(=O)N[C@H](C(=O)N[C@@H](CS)C(=O)N[C@@H](CCC(=O)O)C(=O)O)[C@@H](C)CC [N102T466L-M479E, LCLDQIGEFQCICE] (H-LCLDQIGEFQCICE-OH; N-terminus and C-terminus assumed)', 5.27),
  ('CC[C@H](C)[C@H](NC(=O)[C@H](CCC(N)=O)NC(=O)[C@H](CC(=O)O)NC(=O)[C@H](CC(C)C)NC(=O)[C@H](CS)NC(=O)[C@@H](N)Cc1ccccc1)C(=O)NCC(=O)N[C@@H](CCC(=O)O)C(=O)N[C@@H](Cc1ccccc1)C(=O)N[C@@H](CCC(N)=O)C(=O)N[C@@H](CS)C(=O)N[C@H](C(=O)N[C@@H](CS)C(=O)N[C@@H](CCC(=O)O)C(=O)O)[C@@H](C)CC [N102T466F-M479E, FCLDQIGEFQCICE] (H-FCLDQIGEFQCICE-OH; N-terminus and C-terminus assumed)', 4.36),
  ('CC[C@H](C)[C@H](NC(=O)[C@H](CCC(N)=O)NC(=O)[C@H](CC(=O)O)NC(=O)[C@H](CC(C)C)NC(=O)[C@@H](N)CS)C(=O)NCC(=O)N[C@@H](CCC(=O)O)C(=O)N[C@@H](Cc1ccccc1)C(=O)N[C@@H](CCC(N)=O)C(=O)N[C@@H](CS)C(=O)N[C@H](C(=O)N[C@@H](CS)C(=O)N[C@@H](CCSC)C(=O)O)[C@@H](C)CC [Peptide N102, CLDQIGEFQCICM] (H-CLDQIGEFQCICM-OH; N-terminus and C-terminus assumed)', 4.99),
  ('CC[C@H](C)[C@H](NC(=O)[C@H](CCC(N)=O)NC(=O)[C@H](CC(=O)O)NC(=O)[C@H](CC(C)C)NC(=O)[C@H](CS)NC(=O)[C@@H](N)Cc1c[nH]c2ccccc12)C(=O)NCC(=O)N[C@@H](CCC(=O)O)C(=O)N[C@@H](Cc1ccccc1)C(=O)N[C@@H](CCC(N)=O)C(=O)N[C@@H](CS)C(=O)N[C@H](C(=O)N[C@@H](CS)C(=O)N[C@@H](CCC(=O)O)C(=O)O)[C@@H](C)CC [N102T466W-M479E, WCLDQIGEFQCICE] (H-WCLDQIGEFQCICE-OH; N-terminus and C-terminus assumed)', 4.27),
  ('CC[C@H](C)[C@H](NC(=O)[C@H](CCC(N)=O)NC(=O)[C@H](CC(=O)O)NC(=O)[C@H](CC(C)C)NC(=O)[C@@H](N)CS)C(=O)NCC(=O)N[C@@H](CCC(=O)O)C(=O)N[C@@H](Cc1ccccc1)C(=O)N[C@@H](CCC(N)=O)C(=O)N[C@@H](CS)C(=O)N[C@H](C(=O)N[C@@H](CS)C(=O)N[C@@H](CC(=O)O)C(=O)O)[C@@H](C)CC [Peptide N102M479D, CLDQIGEFQCICD] (H-CLDQIGEFQCICD-OH; N-terminus and C-terminus assumed)', 5.24),
  ('CC[C@H](C)[C@H](NC(=O)[C@H](CS)NC(=O)[C@H](CCC(N)=O)NC(=O)[C@H](Cc1ccccc1)NC(=O)[C@H](CCC(=O)O)NC(=O)CNC(=O)[C@@H](NC(=O)[C@H](CCC(N)=O)NC(=O)[C@H](CC(=O)O)NC(=O)[C@H](CC(C)C)NC(=O)[C@@H](N)CS)[C@@H](C)CC)C(=O)O [Peptide N104, CLDQIGEFQCI] (H-CLDQIGEFQCI-OH; N-terminus and C-terminus assumed)', 4.55),
  ('CC[C@H](C)[C@H](NC(=O)[C@H](CCC(N)=O)NC(=O)[C@H](CC(=O)O)NC(=O)[C@H](CC(C)C)NC(=O)[C@@H](N)CS)C(=O)NCC(=O)N[C@@H](CCC(=O)O)C(=O)N[C@@H](Cc1ccccc1)C(=O)N[C@@H](CCC(N)=O)C(=O)N[C@@H](CS)C(=O)N[C@H](C(=O)N[C@@H](CS)C(=O)N[C@@H](CCSC)C(=O)N1CCC[C@H]1C(=O)O)[C@@H](C)CC [Peptide N101, CLDQIGEFQCICMP] (H-CLDQIGEFQCICMP-OH; N-terminus and C-terminus assumed)', 4.85);

Please look at the following compound next.
input: Given the compound CC[C@H](C)[C@H](N)C(=O)N[C@@H](CS)C(=O)N[C@@H](CC(C)C)C(=O)N[C@@H](CC(=O)O)C(=O)N[C@@H](CCC(N)=O)C(=O)N[C@H](C(=O)NCC(=O)N[C@@H](CCC(=O)O)C(=O)N[C@@H](Cc1ccccc1)C(=O)N[C@@H](CCC(N)=O)C(=O)N[C@@H](CS)C(=O)N[C@H](C(=O)N[C@@H](CS)C(=O)N[C@@H](CCC(=O)O)C(=O)O)[C@@H](C)CC)[C@@H](C)CC [N102T466I-M479E, ICLDQIGEFQCICE] (H-ICLDQIGEFQCICE-OH; N-terminus and C-terminus assumed) , what is its reported pIC50?
output: 4.82

From: patent US11117932B2
